relative viability values by entry
Test system: NCI-H727
Assay details: relative viability (nuclei count vs DMSO), 5 days (fraction); higher = more cells survive
Reported conditions: first compound 0.5 µM

Study these solved cases before continuing.
• Nc1ccn([C@@H]2O[C@H](CO)[C@@H](O)[C@@H]2O)c(=O)n1 [Cytarabine] + COc1cccc2cc(-c3nc([C@H]4CC[C@H](C(=O)O)CC4)n4ncnc(N)c34)[nH]c12 [OSI-027] (partner 0.5 µM) = 0.347
• COc1cc2nccc(Oc3ccc(NC(=O)Nc4cc(C)on4)c(Cl)c3)c2cc1OC [Tivozanib] + COc1cccc2cc(-c3nc([C@H]4CC[C@H](C(=O)O)CC4)n4ncnc(N)c34)[nH]c12 [OSI-027] (partner 0.5 µM) = 0.68
• Nc1ccn([C@@H]2O[C@H](CO)[C@@H](O)[C@@H]2O)c(=O)n1 [Cytarabine] + NC(=O)Nc1cc(-c2cccc(F)c2)sc1C(=O)N[C@H]1CCCNC1 [AZD7762] (partner 0.2 µM) = 0.418

State relative viability on NCI-H727. Entry: Nc1ccn([C@@H]2O[C@H](CO)[C@@H](O)[C@@H]2O)c(=O)n1 [Cytarabine] + CCNC(=O)c1noc(-c2cc(C(C)C)c(O)cc2O)c1-c1ccc(CN2CCOCC2)cc1 [Luminespib] (partner 0.01 µM) 0.309

State relative viability on NCI-H727. Entry: COc1cc2nccc(Oc3ccc(NC(=O)Nc4cc(C)on4)c(Cl)c3)c2cc1OC [Tivozanib] + CC(=O)Nc1cccc(-n2c(=O)n(C3CC3)c(=O)c3c(Nc4ccc(I)cc4F)n(C)c(=O)c(C)c32)c1 [Trametinib] (partner 0.02 µM) 0.398

State relative viability on NCI-H727. Entry: Nc1ccn([C@@H]2O[C@H](CO)[C@@H](O)[C@@H]2O)c(=O)n1 [Cytarabine] + Cc1nc(Nc2ncc(C(=O)Nc3c(C)cccc3Cl)s2)cc(N2CCN(CCO)CC2)n1 [Dasatinib] (partner 0.075 µM) 0.294

---

System: NCI-H1793
Assay details: relative viability (nuclei count vs DMSO), 5 days (fraction); higher = more cells survive
Reported conditions: first compound 0.002 µM
Experimental endpoint: relative viability

Return value of relative viability for input CC(=O)O[C@@]12CO[C@@H]1C[C@H](O)[C@@]1(C)C(=O)[C@H](O)C3=C(C)[C@@H](OC(=O)[C@H](O)[C@@H](NC(=O)OC(C)(C)C)c4ccccc4)C[C@@](O)([C@@H](OC(=O)c4ccccc4)[C@H]21)C3(C)C [Docetaxel] + NC(=O)Nc1cc(-c2cccc(F)c2)sc1C(=O)N[C@H]1CCCNC1 [AZD7762] (partner 0.2 µM) , no commentary. 0.299

Return value of relative viability for input CC(=O)O[C@@]12CO[C@@H]1C[C@H](O)[C@@]1(C)C(=O)[C@H](O)C3=C(C)[C@@H](OC(=O)[C@H](O)[C@@H](NC(=O)OC(C)(C)C)c4ccccc4)C[C@@](O)([C@@H](OC(=O)c4ccccc4)[C@H]21)C3(C)C [Docetaxel] + Cc1nc(NC(=O)N2CCC[C@H]2C(N)=O)sc1-c1ccnc(C(C)(C)C(F)(F)F)c1 [Alpelisib] (partner 2 µM) , no commentary. 0.41

Return value of relative viability for input CC(=O)O[C@@]12CO[C@@H]1C[C@H](O)[C@@]1(C)C(=O)[C@H](O)C3=C(C)[C@@H](OC(=O)[C@H](O)[C@@H](NC(=O)OC(C)(C)C)c4ccccc4)C[C@@](O)([C@@H](OC(=O)c4ccccc4)[C@H]21)C3(C)C [Docetaxel] + CCNC(=O)c1noc(-c2cc(C(C)C)c(O)cc2O)c1-c1ccc(CN2CCOCC2)cc1 [Luminespib] (partner 0.01 µM) , no commentary. 0.238
